# Assay overview: Placebo controlled, dose escalation pharmacokinetic study of oral (Z)-Endoxifen capsules (serum endoxifen; incl. accumulation ratios and dose linearity)
# Type: in vivo, human
# Condition parameters: female, human, serum, po, 2 mg, Day 21; dose 2 mg oral once daily; Mean, N 6; read-out: Cmax
# Excerpt: An objective of the study was to assess the safety and tolerability of oral (Z)-Endoxifen when administered […] orally as a capsule to healthy female volunteers. A secondary objective was to assess the pharmacokinetics of multiple doses of oral (Z)-Endoxifen in the subjects. Generally, healthy female volunteers aged ≥18 years and ≤65 years were enrolled. 24 participants were enrolled in 3 cohorts and will be administered study drug orally. […]
Measured parameter: Cmax (ng/mL)
Give just the number in ng/mL; leave the unit off.

Request: Entry under review: CC/C(=C(\c1ccc(O)cc1)c1ccc(OCCNC)cc1)c1ccccc1 [(Z)-Endoxifen] . Reported Cmax?
Response: 50

---

# Assay overview: Placebo controlled, dose escalation pharmacokinetic study of oral (Z)-Endoxifen capsules (serum endoxifen; incl. accumulation ratios and dose linearity)
# Format: in vivo, human
# Condition parameters: female, human, serum, po, 4 mg, Day 1; dose 4 mg oral; GeoMean, N 6; read-out: Cmax
Measured parameter: Cmax (ng/mL)
Give just the number in ng/mL; leave the unit off.

Request: Entry under review: CC/C(=C(\c1ccc(O)cc1)c1ccc(OCCNC)cc1)c1ccccc1 [(Z)-Endoxifen] . Reported Cmax?
Response: 29.1

---

# Assay overview: Placebo controlled, dose escalation pharmacokinetic study of oral (Z)-Endoxifen capsules (serum endoxifen; incl. accumulation ratios and dose linearity)
# Assay type: in vivo, human
# Condition parameters: female, human, serum, po, 4 mg/day, Day 21; 4 mg/day oral (n = 6); read-out: Median Tmax
Measured parameter: Tmax (h)
Give just the number in h; leave the unit off.

Request: Entry under review: CC/C(=C(\c1ccc(O)cc1)c1ccc(OCCNC)cc1)c1ccccc1 [(Z)-Endoxifen] . Reported Tmax?
Response: 5

---

# Assay overview: Placebo controlled, dose escalation pharmacokinetic study of oral (Z)-Endoxifen capsules (serum endoxifen; incl. accumulation ratios and dose linearity)
# Assay type: in vivo, human
# Condition parameters: female, human, serum, po, 4 mg, Day 21; dose 4 mg oral once daily; Mean, N 6; read-out: Cmax
Measured parameter: Cmax (ng/mL)
Give just the number in ng/mL; leave the unit off.

Request: Entry under review: CC/C(=C(\c1ccc(O)cc1)c1ccc(OCCNC)cc1)c1ccccc1 [(Z)-Endoxifen] . Reported Cmax?
Response: 115

---

# Assay overview: Placebo controlled, dose escalation pharmacokinetic study of oral (Z)-Endoxifen capsules (serum endoxifen; incl. accumulation ratios and dose linearity)
# Format: in vivo, human
# Condition parameters: female, human, serum, oral, 2 mg, Day 1; 2 mg; N 6; read-out: Cmax, Median
Measured parameter: Cmax (ng/mL)
Give just the number in ng/mL; leave the unit off.

Request: Entry under review: CC/C(=C(\c1ccc(O)cc1)c1ccc(OCCNC)cc1)c1ccccc1 [(Z)-Endoxifen] . Reported Cmax?
Response: 17.5

---

# Assay overview: Placebo controlled, dose escalation pharmacokinetic study of oral (Z)-Endoxifen capsules (serum endoxifen; incl. accumulation ratios and dose linearity)
# Format: in vivo, human
# Condition parameters: female, human, serum, oral, 1 mg, Day 1; 1 mg; N = 5; read-out: AUC24hr, GeoMean
Measured parameter: AUC(0-t) (ng·h/mL)
Give just the number in ng·h/mL; leave the unit off.

Request: Entry under review: CC/C(=C(\c1ccc(O)cc1)c1ccc(OCCNC)cc1)c1ccccc1 [(Z)-Endoxifen] . Reported AUC(0-t)?
Response: 155

---

# Assay overview: Placebo controlled, dose escalation pharmacokinetic study of oral (Z)-Endoxifen capsules (serum endoxifen; incl. accumulation ratios and dose linearity)
# Format: in vivo, human
# Condition parameters: female, human, serum, po, 4 mg/day, Day 21; 4 mg/day oral (n = 6); read-out: Cmax, Arithmetic Mean
Measured parameter: Cmax (ng/mL)
Give just the number in ng/mL; leave the unit off.

Request: Entry under review: CC/C(=C(\c1ccc(O)cc1)c1ccc(OCCNC)cc1)c1ccccc1 [(Z)-Endoxifen] . Reported Cmax?
Response: 115

---

# Assay overview: Placebo controlled, dose escalation pharmacokinetic study of oral (Z)-Endoxifen capsules (serum endoxifen; incl. accumulation ratios and dose linearity)
# Assay type: in vivo, human
# Condition parameters: female, human, serum, oral, 1 mg, Day 1; 1 mg; N = 5; read-out: AUC0-inf, GeoMean
Measured parameter: AUC(0-inf) (ng·h/mL)
Give just the number in ng·h/mL; leave the unit off.

Request: Entry under review: CC/C(=C(\c1ccc(O)cc1)c1ccc(OCCNC)cc1)c1ccccc1 [(Z)-Endoxifen] . Reported AUC(0-inf)?
Response: 559

---

# Assay overview: Placebo controlled, dose escalation pharmacokinetic study of oral (Z)-Endoxifen capsules (serum endoxifen; incl. accumulation ratios and dose linearity)
# Assay type: in vivo, human
# Condition parameters: female, human, serum, oral, 1 mg; Day 1 hr 3; read-out: Serum concentration, GeoMean
Measured parameter: concentration at 3 h (µM)
Give just the number in µM; leave the unit off.

Request: Entry under review: CC/C(=C(\c1ccc(O)cc1)c1ccc(OCCNC)cc1)c1ccccc1 [(Z)-Endoxifen] . Reported concentration at 3 h?
Response: 0.0171

---

# Assay overview: Placebo controlled, dose escalation pharmacokinetic study of oral (Z)-Endoxifen capsules (serum endoxifen; incl. accumulation ratios and dose linearity)
# Assay type: in vivo, human
# Condition parameters: female, human, serum, oral, 1 mg; Day 4 Hr 72; read-out: Serum concentration, Median
Measured parameter: concentration at 72 h (nM)
Give just the number in nM; leave the unit off.

Request: Entry under review: CC/C(=C(\c1ccc(O)cc1)c1ccc(OCCNC)cc1)c1ccccc1 [(Z)-Endoxifen] . Reported concentration at 72 h?
Response: 8.03

---

# Assay overview: Placebo controlled, dose escalation pharmacokinetic study of oral (Z)-Endoxifen capsules (serum endoxifen; incl. accumulation ratios and dose linearity)
# Assay type: in vivo, human
# Condition parameters: female, human, serum, oral, 1 mg; Day 1 hr 2; read-out: Serum concentration, Mean
Measured parameter: concentration at 2 h (nM)
Give just the number in nM; leave the unit off.

Request: Entry under review: CC/C(=C(\c1ccc(O)cc1)c1ccc(OCCNC)cc1)c1ccccc1 [(Z)-Endoxifen] . Reported concentration at 2 h?
Response: 17.1

---

# Assay overview: Placebo controlled, dose escalation pharmacokinetic study of oral (Z)-Endoxifen capsules (serum endoxifen; incl. accumulation ratios and dose linearity)
# Type: in vivo, human
# Condition parameters: female, human, serum, oral, 2 mg, Day 1; 2 mg; N 6; read-out: AUC0-inf, Median
Measured parameter: AUC(0-inf) (ng·h/mL)
Give just the number in ng·h/mL; leave the unit off.

Request: Entry under review: CC/C(=C(\c1ccc(O)cc1)c1ccc(OCCNC)cc1)c1ccccc1 [(Z)-Endoxifen] . Reported AUC(0-inf)?
Response: 1100

---

# Assay overview: Placebo controlled, dose escalation pharmacokinetic study of oral (Z)-Endoxifen capsules (serum endoxifen; incl. accumulation ratios and dose linearity)
# Format: in vivo, human
# Condition parameters: female, human, serum, po, 1 mg/day, Day 1; 1 mg/day oral (n = 5); read-out: Median Tmax
# From the text: An objective of the study was to assess the safety and tolerability of oral (Z)-Endoxifen when administered […] orally as a capsule to healthy female volunteers. A secondary objective was to assess the pharmacokinetics of multiple doses of oral (Z)-Endoxifen in the subjects. Generally, healthy female volunteers aged ≥18 years and ≤65 years were enrolled. 24 participants were enrolled in 3 cohorts and will be administered study drug orally. […]
Measured parameter: Tmax (h)
Give just the number in h; leave the unit off.

Request: Entry under review: CC/C(=C(\c1ccc(O)cc1)c1ccc(OCCNC)cc1)c1ccccc1 [(Z)-Endoxifen] . Reported Tmax?
Response: 6

---

# Assay overview: Placebo controlled, dose escalation pharmacokinetic study of oral (Z)-Endoxifen capsules (serum endoxifen; incl. accumulation ratios and dose linearity)
# Type: in vivo, human
# Condition parameters: female, human, serum, oral, 1 mg; Day 1 hr 2; read-out: Serum concentration, GeoMean
Measured parameter: concentration at 2 h (nM)
Give just the number in nM; leave the unit off.

Request: Entry under review: CC/C(=C(\c1ccc(O)cc1)c1ccc(OCCNC)cc1)c1ccccc1 [(Z)-Endoxifen] . Reported concentration at 2 h?
Response: 17

---

# Assay overview: Placebo controlled, dose escalation pharmacokinetic study of oral (Z)-Endoxifen capsules (serum endoxifen; incl. accumulation ratios and dose linearity)
# Assay type: in vivo, human
# Condition parameters: female, human, serum, po, 4 mg, Day 21; dose 4 mg oral once daily; Median, N 6; read-out: Tmax
Measured parameter: Tmax (h)
Give just the number in h; leave the unit off.

Request: Entry under review: CC/C(=C(\c1ccc(O)cc1)c1ccc(OCCNC)cc1)c1ccccc1 [(Z)-Endoxifen] . Reported Tmax?
Response: 5

---

# Assay overview: Placebo controlled, dose escalation pharmacokinetic study of oral (Z)-Endoxifen capsules (serum endoxifen; incl. accumulation ratios and dose linearity)
# Format: in vivo, human
# Condition parameters: female, human, serum, oral, dosing range of 1 mg to 4 mg; read-out: AUC0-inf
Measured parameter: AUC(0-inf)

Request: Entry under review: CC/C(=C(\c1ccc(O)cc1)c1ccc(OCCNC)cc1)c1ccccc1 [(Z)-Endoxifen] . Reported AUC(0-inf)?
Response: 400 to 6000 ng·h/mL
